- System: Pseudomonas aeruginosa
- ASSAY METHOD TEXT: ≥ marks a high value that may be exact or a test limit, other limits are often not marked, values filed in µg/mL are converted to µM
MEASURED ATTRIBUTE: MIC (µM)
Quick note: give the figure in µM, leave out the unit.

### Prompt Request the reported MIC associated with CC[C@H](C)[C@H](NC(=O)[C@H](C)NC(=O)[C@H](CO)NC(=O)[C@@H]1CCCN1C(=O)[C@@H](NC(=O)[C@H](CC(C)C)NC(=O)[C@H](CO)NC(=O)[C@H](Cc1ccccc1)NC(=O)[C@H](CC(C)C)NC(=O)[C@@H](N)Cc1ccccc1)[C@@H](C)CC)C(=O)N[C@@H](CO)C(=O)NCC(=O)N[C@@H](CC(C)C)C(=O)N[C@H](C(=O)N[C@@H](CO)C(=O)N[C@@H](C)C(=O)N[C@@H](Cc1ccccc1)C(=O)N[C@@H](CCCCN)C(N)=O)[C@@H](C)CC [FLFSLIPSAISGLISAFK]
### Response 47.5

====

- Test system: Pseudomonas aeruginosa
- ASSAY METHOD TEXT: ≥ marks a high value that may be exact or a test limit, other limits are often not marked, values filed in µg/mL are converted to µM
This section presents compounds with their documented MIC values.
Give the quantity in µM, number only.

- MOL SMILES: "CC[C@H](C)[C@@H]1NC(=O)CNC(=O)[C@H](CCCN=C(N)N)NC(=O)[C@H](C)NC(=O)[C@@H]2CSSC[C@H](NC1=O)C(=O)N[C@@H](Cc1ccc(O)cc1)C(=O)N[C@@H](CCCN=C(N)N)C(=O)N[C@@H](CCCN=C(N)N)C(=O)N[C@H](C(=O)N[C@@H](CCCN=C(N)N)C(=O)O)CSSC[C@H](NC(=O)[C@H](Cc1c[nH]c3ccccc13)NC(=O)[C@@H](N)CCCCN)C(=O)N[C@@H](Cc1ccccc1)C(=O)N[C@@H](CCCN=C(N)N)C(=O)N[C@@H](C(C)C)C(=O)N2"
  UNIT DESCRIPTOR: "µM"
  MIC: 0.919

### Prompt Kindly state the measured MIC obtained for N[C@@H](CC(=O)O)C(=O)N[C@@H](CCC(=O)O)C(=O)N[C@@H](CC(=O)O)C(=O)N[C@@H](CC(=O)O)C(=O)N[C@@H](CC(=O)O)C(=O)O with Pseudomonas aeruginosa.
### Response 82.3

### Prompt Please state recorded MIC (tested on Pseudomonas aeruginosa) of CC[C@H](C)[C@H](NC(=O)[C@H](CCCN=C(N)N)NC(=O)[C@@H](NC(=O)[C@H](C)NC(=O)[C@@H](NC(=O)[C@@H](NC(=O)[C@H](CC(C)C)NC(=O)[C@H](CCCN=C(N)N)NC(=O)[C@@H](N)C(C)C)[C@@H](C)CC)C(C)C)C(C)C)C(=O)N[C@@H](Cc1c[nH]c2ccccc12)C(=O)N[C@@H](CCCN=C(N)N)C(=O)N[C@@H](CCCN=C(N)N)C(N)=O
### Response 12.4

====

- System: Pseudomonas aeruginosa
- ASSAY METHOD TEXT: ≥ marks a high value that may be exact or a test limit, other limits are often not marked, values filed in µg/mL are converted to µM
MEASURED ATTRIBUTE: MIC (µM)
Record the value in µM, omitting the unit from your answer.

As a guide, the following entries are already answered.
- MOL SMILES: "CC(C)C[C@H](NC(=O)[C@H](Cc1cnc[nH]1)NC(=O)[C@H](CC(C)C)NC(=O)[C@H](CO)NC(=O)[C@H](CC(C)C)NC(=O)[C@H](CCCCN)NC(=O)[C@H](Cc1ccccc1)NC(=O)[C@@H]1CCCN1)C(N)=O"
  MEASURED ATTRIBUTE: "MIC"
  UNIT DESCRIPTOR: "µM"
  REPORTED VALUE: 32
- MOL SMILES: "CC[C@H](C)[C@H](NC(=O)[C@H](Cc1cnc[nH]1)NC(=O)[C@H](CCCCN)NC(=O)[C@H](CC(C)C)NC(=O)[C@H](CC(C)C)NC(=O)[C@H](CO)NC(=O)[C@H](Cc1c[nH]c2ccccc12)NC(=O)[C@H](Cc1c[nH]c2ccccc12)NC(=O)[C@H](CCCCN)NC(=O)CN)C(=O)N[C@@H](CC(C)C)C(=O)N[C@@H](CCCCN)C(N)=O"
  MEASURED ATTRIBUTE: "MIC"
  UNIT DESCRIPTOR: "µM"
  REPORTED VALUE: 50
- MOL SMILES: "CC[C@H](C)[C@H](NC(=O)[C@H](CCCN=C(N)N)NC(=O)[C@H](CC(C)C)NC(=O)[C@H](Cc1ccc(O)cc1)NC(=O)[C@H](CC(C)C)NC(=O)[C@@H](N)CCCN=C(N)N)C(=O)NCC(=O)N[C@@H](CCCN=C(N)N)C(=O)N[C@@H](CCCN=C(N)N)C(N)=O"
  MEASURED ATTRIBUTE: "MIC"
  UNIT DESCRIPTOR: "µM"
  REPORTED VALUE: 333

### Prompt Quick one: MIC of CC[C@H](C)[C@H](NC(=O)[C@H](CC(C)C)NC(=O)[C@H](Cc1cnc[nH]1)NC(=O)CNC(=O)[C@H](CC(C)C)NC(=O)[C@@H](NC(=O)[C@H](CCCCN)NC(=O)[C@H](CCCCN)NC(=O)[C@H](Cc1c[nH]c2ccccc12)NC(=O)[C@H](CCSC)NC(=O)CN)[C@@H](C)CC)C(=O)N[C@@H](CCCN=C(N)N)C(N)=O ?
### Response 16.3
